meta.source: ChEMBL document CHEMBL3046822

Test: Antiaggregating activity in Homo sapiens (human) platelet rich plasma assessed as arachidonic acid-induced platelet aggregation at 1 uM incubated for 4 min prior to arachidonic acid-induction measured for 5.5 min by turbidometric analysis (reference value: 55 to 100%)
Type: functional
Define the label as fulfilled when Activity is strictly less than 50% and as not fulfilled in all remaining cases.

Illustrative cases are given below, each with its answer.
1) O=C(c1ccc[n+](Cc2ccccc2F)c1)N1CCN(c2ccccc2Cl)CC1.[Cl-]	not fulfilled
2) O=C(c1ccc[n+](Cc2ccc(C[n+]3cccc(C(=O)N4CCN(c5ccccc5Cl)CC4)c3)cc2)c1)N1CCN(c2ccccc2Cl)CC1.[Br-].[Br-]	fulfilled
3) O=C(c1ccc[n+](Cc2ccc(Br)cc2)c1)N1CCN(c2ncccn2)CC1.[Br-]	not fulfilled
4) O=C(c1ccc[n+](Cc2ccc(C[n+]3cccc(C(=O)N4CCN(c5ncccn5)CC4)c3)cc2)c1)N1CCN(c2ncccn2)CC1.[Br-].[Br-]	not fulfilled

Dear reviewer, please state whether O=C(c1ccc[n+](Cc2ccccc2)c1)N1CCN(c2ccccc2Cl)CC1.[Cl-] has Activity strictly beneath 50%.
not fulfilled

====

Assay: Antiaggregating activity in Homo sapiens (human) platelet rich plasma assessed as ristocetin-induced platelet aggregation at 0.125 uM incubated for 4 min prior to ristocetin-induction measured for 5.5 min by turbidometric analysis (reference value: 65 to 99%)
Format: functional
propertyName: Activity (%)
Form entry: value (%) — number only.

1) Br.O=C(C1CCCN(Cc2ccc(Br)cc2)C1)N1CCN(c2ccccc2Cl)CC1 (centres undefined)	53

I am curious: what Activity value has been reported for Br.O=C(C1CCCN(Cc2ccc(CN3CCCC(C(=O)N4CCN(c5ccccc5Cl)CC4)C3)cc2)C1)N1CCN(c2ccccc2Cl)CC1 (centres undefined) ?
31

I am curious: what Activity value has been reported for O=C(c1ccc[n+](Cc2ccc(Br)cc2)c1)N1CCN(c2ccccc2Cl)CC1.[Br-] ?
84

I am curious: what Activity value has been reported for Cl.O=C(C1CCCN(Cc2ccc(F)cc2)C1)N1CCN(c2ccccc2Cl)CC1 (centres undefined) ?
100

====

Assay: Antiaggregating activity in Homo sapiens (human) platelet rich plasma assessed as arachidonic acid-induced platelet aggregation at 0.1 uM incubated for 4 min prior to arachidonic acid-induction measured for 5.5 min by turbidometric analysis (reference value: 55 to 100%)
Assay type: functional
Reported Activity values for a set of compounds
Form entry: value (%) — number only.

Past entries and their recorded results:
1. Cl.O=C(C1CCCN(Cc2ccccc2)C1)N1CCN(c2ccccc2Cl)CC1 (centres undefined)	23
2. Br.O=C(C1CCCN(Cc2ccc(Br)cc2)C1)N1CCN(c2ccccn2)CC1 (centres undefined)	72
3. Cl.O=C(C1CCCN(Cc2ccccc2F)C1)N1CCN(c2ccccc2Cl)CC1 (centres undefined)	59

Turning now to a further compound:
I am curious: what Activity value has been reported for COc1cc(C(=O)N2CCCC(C(=O)N3CCN(c4ncccn4)CC3)C2)cc(OC)c1OC.Cl (centres undefined) ?
76

====

System: Platelet
Experiment: Antiaggregating activity in Homo sapiens (human) platelet rich plasma assessed as inhibition of arachidonic acid-induced platelet aggregation at 0.5 uM incubated for 4 min prior to arachidonic acid-induction measured for 5.5 min by turbidometric analysis
Format: functional
Active and inactive are the calls of the source. No cut-off for these calls is given here.
propertyName: inhibition

Past entries and their recorded results:
1) Cl.O=C(c1ccc(Br)cc1)N1CCCC(C(=O)N2CCN(c3ccccc3Cl)CC2)C1 (stereo not given)	Active
2) O=C(c1ccc[n+](Cc2ccc(Br)cc2)c1)N1CCN(c2ccccc2Cl)CC1.[Br-]	Active
3) Br.O=C(C1CCCN(Cc2ccc([N+](=O)[O-])cc2)C1)N1CCN(c2ccccc2Cl)CC1 (stereo not given)	Active
4) COc1cc(C(=O)[n+]2cccc(C(=O)N3CCN(c4ccccc4Cl)CC3)c2)cc(OC)c1OC.[Cl-]	Active
5) Cl.O=C(C1CCCN(Cc2ccc(F)cc2)C1)N1CCN(c2ccccc2Cl)CC1 (stereo not given)	Active
6) Cl.Cl.O=C(C1CCCN(Cc2ccc(CN3CCCC(C(=O)N4CCN(c5ncccn5)CC4)C3)cc2)C1)N1CCN(c2ncccn2)CC1 (stereo not given)	Active
7) Br.O=C(C1CCCN(Cc2ccc(CN3CCCC(C(=O)N4CCN(c5ccccc5Cl)CC4)C3)cc2)C1)N1CCN(c2ccccc2Cl)CC1 (stereo not given)	Active
8) Cl.O=C(C1CCCN(Cc2ccccc2F)C1)N1CCN(c2ccccc2Cl)CC1 (stereo not given)	Active

I am curious: what inhibition value has been reported for Cl.O=C(C1CCCN(Cc2ccccc2)C1)N1CCN(c2ccccc2Cl)CC1 (stereo not given) ?
Active

I am curious: what inhibition value has been reported for Cl.O=C(c1cccnc1)N1CCN(c2ccccc2Cl)CC1 ?
Active

====

Assay: Antiaggregating activity in Homo sapiens (human) platelet rich plasma assessed as ADP-induced platelet aggregation at 0.1 uM incubated for 4 min prior to ADP-induction measured for 5.5 min by turbidometric analysis (reference value: 54 to 88%)
Type: functional
propertyName: Activity
Write the numeric value and append its unit.

1. COc1cc(C(=O)N2CCCC(C(=O)N3CCN(c4ncccn4)CC3)C2)cc(OC)c1OC.Cl (stereo not given)	72%
2. Cl.O=C(C1CCCN(Cc2ccccc2F)C1)N1CCN(c2ccccc2Cl)CC1 (stereo not given)	74%
3. Cl.O=C(C1CCCN(Cc2ccccc2)C1)N1CCN(c2ccccc2Cl)CC1 (stereo not given)	86%

I am curious: what Activity value has been reported for Br.O=C(C1CCCN(Cc2ccc(Br)cc2)C1)N1CCN(c2ccccn2)CC1 (stereo not given) ?
76%

I am curious: what Activity value has been reported for Br.O=C(C1CCCN(Cc2ccc([N+](=O)[O-])cc2)C1)N1CCN(c2ccccc2Cl)CC1 (stereo not given) ?
57%

====

System: Platelet
Experiment: Antiaggregating activity in Homo sapiens (human) platelet rich plasma assessed as inhibition of adrenaline-induced platelet aggregation at 0.25 uM incubated for 4 min prior to adrenaline-induction measured for 5.5 min by turbidometric analysis
Format: functional, cell-free
Calls of active or inactive are those of the source. No cut-off for these calls is given here.
propertyName: inhibition

1. Cl.O=C(C1CCCN(Cc2ccccc2)C1)N1CCN(c2ccccc2Cl)CC1 (stereo not drawn)	Active
2. Cl.O=C(C1CCCN(Cc2ccccc2F)C1)N1CCN(c2ccccc2Cl)CC1 (stereo not drawn)	Active
3. Cl.O=C(C1CCCN(Cc2ccc(F)cc2)C1)N1CCN(c2ccccc2Cl)CC1 (stereo not drawn)	Active
4. Br.O=C(C1CCCN(Cc2ccc([N+](=O)[O-])cc2)C1)N1CCN(c2ccccc2Cl)CC1 (stereo not drawn)	Active
5. COc1cc(C(=O)[n+]2cccc(C(=O)N3CCN(c4ccccc4Cl)CC3)c2)cc(OC)c1OC.[Cl-]	Active

Form field - read-out: inhibition; system: Platelet; submitted item: Br.O=C(C1CCCN(Cc2ccc(Br)cc2)C1)N1CCN(c2ccccn2)CC1 (stereo not drawn)
Active

Form field - read-out: inhibition; system: Platelet; submitted item: O=C(c1ccc[n+](Cc2ccc(Br)cc2)c1)N1CCN(c2ccccc2Cl)CC1.[Br-]
Active

Form field - read-out: inhibition; system: Platelet; submitted item: Cl.O=C(c1ccc(Br)cc1)N1CCCC(C(=O)N2CCN(c3ccccc3Cl)CC2)C1 (stereo not drawn)
Active

====

Assay: Antiaggregating activity in Homo sapiens (human) platelet rich plasma assessed as collagen-induced platelet aggregation at 0.1 uM incubated for 4 min prior to collagen-induction measured for 5.5 min by turbidometric analysis (reference value: 50 to 98%)
Assay type: functional
propertyName: Activity

Past entries and their recorded results:
1. Br.O=C(C1CCCN(Cc2ccc(Br)cc2)C1)N1CCN(c2ccccn2)CC1 (centres undefined)	67%
2. Cl.O=C(C1CCCN(Cc2ccccc2)C1)N1CCN(c2ccccc2Cl)CC1 (centres undefined)	100%
3. Br.O=C(C1CCCN(Cc2ccc([N+](=O)[O-])cc2)C1)N1CCN(c2ccccc2Cl)CC1 (centres undefined)	58%

Turning now to a further compound:
I am curious: what Activity value has been reported for COc1cc(C(=O)N2CCCC(C(=O)N3CCN(c4ncccn4)CC3)C2)cc(OC)c1OC.Cl (centres undefined) ?
67%
